Assay: Microsomal metabolic stability, human
Assay type: in vitro ADME
Conditions: pH 7.4; human liver microsomes
Lab note: anything with half-life at 1 µM at or over 8 min counts as yes (1); the rest go in no (0).

// below: answered compounds
>>> group_label("Cc1ccccc1C(C(=O)NC1CCCCC1)N(C(=O)Cn1cnc2ccccc21)c1cccc(F)c1 (stereo not drawn) [Agios 135]")
"no (0)"
>>> group_label("CC(C)Nc1nc(Nc2ccccc2)nc(-c2ccccc2)n1 [IDH2-C100]")
"yes (1)"
>>> group_label("N#Cc1ccnc(N2C(=O)CC[C@H]2C(=O)N(c2cncc(F)c2)[C@H](C(=O)NC2CC(F)(F)C2)c2ccccc2Cl)c1 [AG-120, Ivosidenib]")
"yes (1)"
>>> group_label("Cc1ccccc1C(C(=O)NC1CCCCC1)N(C(=O)Cn1ccnc1C)c1cccc(F)c1 (stereo not drawn) [AGI-5198]")
"no (0)"
>>> group_label("Cc1ccccc1[C@@H](C(=O)NC1CCCC1)N(C(=O)Cn1cnc2ccccc21)c1cccc(F)c1 [ML309]")
"no (0)"

Please tell me: is the compound CC(C)(O)CNc1nc(Nc2ccnc(C(F)(F)F)c2)nc(-c2cccc(C(F)(F)F)n2)n1 [AG-221, Enasidenib] at or over 8 min in terms of half-life at 1 µM? yes (1)

Answer whether half-life at 1 µM of O=C(Nc1cccc(C(F)(F)F)c1)Nc1cc(S(=O)(=O)NC2CC2)ccc1-c1ccsc1 [AGI-6780] is greater than or equal to 8 min. no (0)

State whether the measured half-life at 1 µM reaches 8 min, counting equality as reaching it, for COc1c(C)cc(NC(=O)c2nn(Cc3ccc(F)cc3)c3c2CN(C(=O)c2ccc[nH]2)C[C@]3(C)C(N)=O)cc1C [GSK864] yes (1)
